# Study Target: Human 5-HT2A (Homo sapiens, UniProt P28223)
# Sequence (P28223 whole entry): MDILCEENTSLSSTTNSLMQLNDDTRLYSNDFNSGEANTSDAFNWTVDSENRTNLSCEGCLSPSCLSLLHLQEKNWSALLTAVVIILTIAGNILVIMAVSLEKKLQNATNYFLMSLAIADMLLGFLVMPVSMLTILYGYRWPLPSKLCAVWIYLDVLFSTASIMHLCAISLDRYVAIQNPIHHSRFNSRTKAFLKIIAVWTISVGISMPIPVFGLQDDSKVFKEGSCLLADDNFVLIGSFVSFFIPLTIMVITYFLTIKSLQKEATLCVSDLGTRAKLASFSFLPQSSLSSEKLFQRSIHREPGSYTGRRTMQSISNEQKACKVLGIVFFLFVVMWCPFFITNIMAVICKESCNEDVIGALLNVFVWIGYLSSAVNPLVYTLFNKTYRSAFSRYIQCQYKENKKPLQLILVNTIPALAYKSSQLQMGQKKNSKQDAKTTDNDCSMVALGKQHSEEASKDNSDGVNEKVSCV
# Method: [125I]DOI radioligand binding, human 5-HT2A
Attribute Measured: Ki (nM)

>>> df
                                   compound  units_text  assay_value
0  CCc1ccc2[nH]c3c(c2c1)CCNC3Cc1cccc2ccccc12 (centres unmarked)          nM         6.71
1  COc1ccc(CC2NCCc3c2[nH]c2c(C)cccc32)cc1OC (centres unmarked) [drawing 182]          nM         49.7
2  CCCN(CCC)C1CCc2cccc(C(=O)C(C)(C)C)c2C1 (single isomer, unassigned)          nM         2230
3  Cc1ccc2[nH]c3c(c2c1)CCNC3Cc1ccc(N(C)C)c2ccccc12 (centres unmarked)          nM         0.83
4               NCCc1c[nH]c2ccc(C(N)=O)cc12          nM          120
